Test system: NCI-H1417 complex spheroids, growth % test/control
assayProcedure: Anticancer human tumor NCI-H1417 cell line growth inhibition [Asc];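 also: spheroids exposed to compounds for 7 days; 100% = DMSO vehicle control wells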
details: second compound 0.0949 µM; first compound 0.01 µM; stronger effect = lower value
We begin with a simple list: items and their reported viability, T/C.
Dear colleague, please return just the value in %, with no unit written.

>>> reportedresult("Cn1ncnc1[C@H]1c2n[nH]c(=O)c3cc(F)cc(c23)N[C@@H]1c1ccc(F)cc1 + CCN1C(C(=O)NC23CCC(C(=O)O)(CC2)CC3)C(c2cccc(Cl)c2F)C2(C(=O)Nc3cc(Cl)ccc32)C12CCCCC2")
52.3
>>> reportedresult("O=C(c1ccc(F)c(F)c1Nc1ccc(I)cc1F)N1CC(O)([C@@H]2CCCCN2)C1 + CCN1C(C(=O)NC23CCC(C(=O)O)(CC2)CC3)C(c2cccc(Cl)c2F)C2(C(=O)Nc3cc(Cl)ccc32)C12CCCCC2")
89
>>> reportedresult("CCN1CCN(Cc2ccc(Nc3ncc(F)c(-c4cc(F)c5nc(C)n(C(C)C)c5c4)n3)nc2)CC1 + CCN1C(C(=O)NC23CCC(C(=O)O)(CC2)CC3)C(c2cccc(Cl)c2F)C2(C(=O)Nc3cc(Cl)ccc32)C12CCCCC2")
104
>>> reportedresult("NC1CCC(NC2CC2c2ccccc2)CC1 (stereo unspecified) + CCN1C(C(=O)NC23CCC(C(=O)O)(CC2)CC3)C(c2cccc(Cl)c2F)C2(C(=O)Nc3cc(Cl)ccc32)C12CCCCC2")
69.8
>>> reportedresult("CNC(C)C(=O)NC1CN(S(=O)(=O)c2cccc(S(=O)(=O)N3CCC4CCC(C(=O)NC(c5ccccc5)c5ccccc5)N4C(=O)C(NC(=O)C(C)NC)C3)c2)CCC2CCC(C(=O)NC(c3ccccc3)c3ccccc3)N2C1=O (stereo unspecified) + CCN1C(C(=O)NC23CCC(C(=O)O)(CC2)CC3)C(c2cccc(Cl)c2F)C2(C(=O)Nc3cc(Cl)ccc32)C12CCCCC2")
94.8

Continue with the compound presented below.
Which viability, T/C is reported with NCI-H1417 complex spheroids, growth % test/control for this entry: COc1c(OCCCN2CCOCC2)ccc2c3n(c(=NC(=O)c4cnc(N)nc4)nc12)CCN3 + CCN1C(C(=O)NC23CCC(C(=O)O)(CC2)CC3)C(c2cccc(Cl)c2F)C2(C(=O)Nc3cc(Cl)ccc32)C12CCCCC2 ?
96.7

From: PubChem BioAssay AID1963440
